This listing pairs compounds with measured viability, T/C.
- System: 889142-216-R-J1-PDC complex spheroid viability;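 also: spheroids exposed to compounds for seven days; 100% = DMSO vehicle control viability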
- EXPERIMENT_DESCRIPTION: Anticancer human tumor 889142-216-R-J1-PDC patient-derived bladder carcinoma cell line growth inhibition [POLQ]
- MEASUREMENT_CONTEXT: second compound 0.0316 µM; first compound 0.0316 µM; hits give low values
- Experimental: Multicellular complex tumor spheroid response to Polymerase (POL) inhibitors (novobiocin, ART-558, RP6685) in combination with a variety of drugs and investigational agents in selected tumor cell lines The POL inhibitors (novobiocin, ART-558, and RP6685) were evaluated both individually and in combination with standard of care and investigational anticancer small molecules within a complex spheroid model of solid tumors. . […]
MEASURE: viability, T/C (%)

INSERT INTO assay_data (compound, subject_of_test, measure, quantity_unit, reading) VALUES
  ('COc1cccc2c1C(=O)c1c(O)c3c(c(O)c1C2=O)CC(O)(C(=O)CO)CC3OC1CC(N)C(O)C(C)O1 (stereo not given) + Cc1cccc(N(C)C(=O)C2C(O)CCN2c2nc(C)cc(C(F)(F)F)c2C#N)c1', '889142-216-R-J1-PDC complex spheroid viability', 'viability, T/C', '%', 70.9),
  ('CC(C)n1c(=O)n(C)c2cnc3cc(F)c(-c4ccc(OCCCN5CCCCC5)nc4)cc3c21 + Nc1ccc(C#CCN(C(=O)Cc2ncc(C(F)(F)F)cc2C(F)(F)F)c2ccc(F)cc2)nn1', '889142-216-R-J1-PDC complex spheroid viability', 'viability, T/C', '%', 96.5),
  ('C#Cc1c(F)ccc2cc(O)cc(-c3ncc4c(N5CC6CCC(C5)N6)nc(OCC56CCCN5CC(F)C6)nc4c3F)c12 (stereo not given) + COC1C(OC(N)=O)C(O)C(Oc2ccc3c(O)c(NC(=O)c4ccc(O)c(CC=C(C)C)c4)c(=O)oc3c2C)OC1(C)C', '889142-216-R-J1-PDC complex spheroid viability', 'viability, T/C', '%', 99.2),
  ('CCCS(=O)(=O)Nc1ccc(F)c(C(=O)c2c[nH]c3ncc(-c4ccc(Cl)cc4)cc23)c1F + Nc1ccc(C#CCN(C(=O)Cc2ncc(C(F)(F)F)cc2C(F)(F)F)c2ccc(F)cc2)nn1', '889142-216-R-J1-PDC complex spheroid viability', 'viability, T/C', '%', 97.8),
  ('CC1COCCN1c1cc(C2(S(C)(=N)=O)CC2)nc(-c2ccnc3[nH]ccc23)n1 (stereo not given) + Cc1cccc(N(C)C(=O)C2C(O)CCN2c2nc(C)cc(C(F)(F)F)c2C#N)c1', '889142-216-R-J1-PDC complex spheroid viability', 'viability, T/C', '%', 109),
  ('CCCS(=O)(=O)Nc1ccc(F)c(C(=O)c2c[nH]c3ncc(-c4ccc(Cl)cc4)cc23)c1F + COC1C(OC(N)=O)C(O)C(Oc2ccc3c(O)c(NC(=O)c4ccc(O)c(CC=C(C)C)c4)c(=O)oc3c2C)OC1(C)C', '889142-216-R-J1-PDC complex spheroid viability', 'viability, T/C', '%', 108),
  ('CC1COCCN1c1cc(C2(O)CC3CCC(C2)O3)c2cnn(-c3ccn[nH]3)c2n1 (stereo not given) + COC1C(OC(N)=O)C(O)C(Oc2ccc3c(O)c(NC(=O)c4ccc(O)c(CC=C(C)C)c4)c(=O)oc3c2C)OC1(C)C', '889142-216-R-J1-PDC complex spheroid viability', 'viability, T/C', '%', 64.3),
  ('O=C(Nc1ccc(O)c(NS(=O)(=O)c2ccc(F)cc2)c1)c1ccc(-c2ccccc2)cc1 + COC1C(OC(N)=O)C(O)C(Oc2ccc3c(O)c(NC(=O)c4ccc(O)c(CC=C(C)C)c4)c(=O)oc3c2C)OC1(C)C', '889142-216-R-J1-PDC complex spheroid viability', 'viability, T/C', '%', 122),
  ('C=CCn1c(=O)c2cnc(Nc3ccc(N4CCN(C)CC4)cc3)nc2n1-c1cccc(C(C)(C)O)n1 + Cc1cccc(N(C)C(=O)C2C(O)CCN2c2nc(C)cc(C(F)(F)F)c2C#N)c1', '889142-216-R-J1-PDC complex spheroid viability', 'viability, T/C', '%', 103),
  ('O=C(c1cc(Cc2n[nH]c(=O)c3ccccc23)ccc1F)N1CCN(C(=O)C2CC2)CC1 + Cc1cccc(N(C)C(=O)C2C(O)CCN2c2nc(C)cc(C(F)(F)F)c2C#N)c1', '889142-216-R-J1-PDC complex spheroid viability', 'viability, T/C', '%', 103);
